target: epidermal growth factor receptor (EGFR) (Homo sapiens); test: […] radiometric HotSpot kinase assay, 10-dose IC50, […] ATP (Reaction Biology); type: biochemical
Sequence (P00533 25-1210): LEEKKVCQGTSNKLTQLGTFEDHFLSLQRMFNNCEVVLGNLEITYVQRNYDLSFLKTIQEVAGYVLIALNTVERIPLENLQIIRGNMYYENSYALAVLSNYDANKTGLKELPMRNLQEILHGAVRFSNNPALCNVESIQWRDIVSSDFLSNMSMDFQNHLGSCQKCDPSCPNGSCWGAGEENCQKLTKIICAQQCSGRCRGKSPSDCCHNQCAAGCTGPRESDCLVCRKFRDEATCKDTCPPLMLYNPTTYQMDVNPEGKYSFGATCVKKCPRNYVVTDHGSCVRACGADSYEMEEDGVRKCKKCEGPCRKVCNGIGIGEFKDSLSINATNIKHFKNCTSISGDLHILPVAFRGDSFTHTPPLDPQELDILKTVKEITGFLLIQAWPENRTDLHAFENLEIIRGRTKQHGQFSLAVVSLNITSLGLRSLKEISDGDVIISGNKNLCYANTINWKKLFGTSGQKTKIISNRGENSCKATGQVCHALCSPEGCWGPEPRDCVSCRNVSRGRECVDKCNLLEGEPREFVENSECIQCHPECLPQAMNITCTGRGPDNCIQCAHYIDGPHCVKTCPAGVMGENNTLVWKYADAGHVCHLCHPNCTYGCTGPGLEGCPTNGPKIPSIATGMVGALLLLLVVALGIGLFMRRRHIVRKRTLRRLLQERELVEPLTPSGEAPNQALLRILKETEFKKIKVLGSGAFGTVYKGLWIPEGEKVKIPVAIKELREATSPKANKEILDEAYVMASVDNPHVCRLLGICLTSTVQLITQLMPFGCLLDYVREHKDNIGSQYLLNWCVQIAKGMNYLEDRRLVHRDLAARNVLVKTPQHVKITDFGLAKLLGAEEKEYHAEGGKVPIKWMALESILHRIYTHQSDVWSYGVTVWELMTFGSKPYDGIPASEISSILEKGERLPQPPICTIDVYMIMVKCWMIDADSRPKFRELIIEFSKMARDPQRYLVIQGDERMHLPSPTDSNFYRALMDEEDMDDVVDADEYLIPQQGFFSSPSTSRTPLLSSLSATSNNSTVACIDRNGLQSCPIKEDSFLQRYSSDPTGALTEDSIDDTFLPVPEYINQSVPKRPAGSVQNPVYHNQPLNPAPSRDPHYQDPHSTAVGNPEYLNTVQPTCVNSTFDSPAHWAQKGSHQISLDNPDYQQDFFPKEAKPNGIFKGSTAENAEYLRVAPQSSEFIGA
EXPERIMENTAL READOUT: IC50
Kindly report the value followed by its unit.

Recorded IC50 for Nc1c(Cl)cc(Nc2ncnc3c(F)cccc23)cc1Cl , please?
1.4 µM

###

biological target: epidermal growth factor receptor (EGFR) (Homo sapiens); assay: biochemical; parameters: 33P radiometric HotSpot filter-binding EGFR kinase assay, 10 uM ATP, Reaction Biology; conditions: 10 uM ATP; read-out: EGFR pIC50 (converted)
EXPERIMENTAL READOUT: IC50 (nM)
Output spec: scalar in nM, unitless text.

Illustrative cases are given below, each with its answer.
- SMILES STR: "Fc1ccc(Nc2ncnc3ccc(Br)cc23)cc1"
  IC50 / nM: 31.6
- SMILES STR: "Nc1c(Cl)cc(Nc2ncnc3c(F)cccc23)cc1Cl"
  IC50 / nM: 1260
- SMILES STR: "Cc1ccc(Nc2ncnc3cccc(F)c23)cc1F"
  IC50 / nM: 200

What value of measured IC50 is listed for Nc1c(Cl)cc(Nc2ncnc3ccc(F)cc23)cc1Cl ?
39.8

###

biological target: epidermal growth factor receptor (EGFR) (Homo sapiens); experiment: biochemical; parameters: 33P radiometric HotSpot filter-binding EGFR kinase assay, 10 uM ATP, Reaction Biology; conditions: 10 uM ATP
Lab note: anything with inhibition at 1 µM at or over 10% counts as yes (1); the rest go in no (0).

- COMPOUND: "Cc1ccc(Nc2ncnc3cccc(F)c23)cc1F"
  CLASS: "yes (1)"
- COMPOUND: "CN(C)C1CCN(c2ccc(Nc3ncnc4ccc(F)cc34)cc2)CC1"
  CLASS: "yes (1)"
- COMPOUND: "CN(C)CCc1ccc(Nc2ncnc3ccc(Cl)cc23)cc1"
  CLASS: "no (0)"
- COMPOUND: "Fc1ccc(Nc2ncnc3ccc(F)cc23)cc1"
  CLASS: "yes (1)"

Confirm if inhibition at 1 µM reported for the compound OC1CCCCC1Oc1ccc(Nc2ncnc3ccc(F)cc23)cc1 (stereo not drawn) is 10% or above.
no (0)

Please give the result for COCCOc1ccc(Nc2ncnc3cccc(F)c23)cc1F too.
no (0)

What do we get for COCCOc1ccc(Nc2ncnc3cc(F)c(OC)cc23)cc1F ?
yes (1)

###

target: epidermal growth factor receptor (EGFR) (Homo sapiens); experiment: biochemical; parameters: 33P radiometric HotSpot filter-binding EGFR kinase assay, 10 uM ATP, Reaction Biology; details: 10 uM ATP
# maps each entry to its inhibition at 1 µM
Lab book: enter the figure in %, no units written.

- COMPOUND: "CNC(=O)CCOc1ccc(Nc2ncnc3cc(Cl)ccc23)cc1 [ZINC000301175853]"
  QUANTITATIVE RESULT: 12
- COMPOUND: "OCCCOc1ccc(Nc2ncnc3cc(Cl)ccc23)cc1 [ZINC000572311742]"
  QUANTITATIVE RESULT: 0

# inhibition at 1 µM lookup, item CN(C)C1CCN(c2ccc(Nc3ncnc4ccc(Br)cc34)cc2)CC1 [ZINC000301979927]
8

Param item: Fc1ccc2ncnc(Nc3ccc(N4CCCC4)cc3)c2c1 [ZINC000041479925]
8

Then Nc1c(Cl)cc(Nc2ncnc3c(F)cccc23)cc1Cl [ZINC000302791534] ?
47

Can you check Nc1c(Cl)cc(Nc2ncnc3ccc(F)cc23)cc1Cl [ZINC000301931984] next?
89

What do you have for CN(C)CC1CCN(c2ccc(Nc3ncnc4ccc(Br)cc34)cc2)CC1 [ZINC000737413605] ?
14
